Catalogue of IC50 readings, one per entry.
Target: MUS81/EME1 (Homo sapiens, UniProt Q96NY9)
Sequence (Q96NY9 1-551): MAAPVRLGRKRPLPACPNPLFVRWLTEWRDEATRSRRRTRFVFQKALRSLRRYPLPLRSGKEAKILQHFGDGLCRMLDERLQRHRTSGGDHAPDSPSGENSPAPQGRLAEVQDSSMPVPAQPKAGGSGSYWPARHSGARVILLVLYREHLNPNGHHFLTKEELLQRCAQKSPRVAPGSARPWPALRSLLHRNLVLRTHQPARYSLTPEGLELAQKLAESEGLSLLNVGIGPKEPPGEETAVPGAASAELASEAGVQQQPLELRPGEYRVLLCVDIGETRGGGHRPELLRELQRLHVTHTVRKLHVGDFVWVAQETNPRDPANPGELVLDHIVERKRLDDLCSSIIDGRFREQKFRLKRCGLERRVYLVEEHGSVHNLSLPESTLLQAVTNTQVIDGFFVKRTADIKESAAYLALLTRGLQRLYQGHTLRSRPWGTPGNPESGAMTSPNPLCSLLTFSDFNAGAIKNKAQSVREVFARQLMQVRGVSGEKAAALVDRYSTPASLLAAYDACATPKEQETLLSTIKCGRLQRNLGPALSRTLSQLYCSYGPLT
Sequence (Q96AY2 1-570 partner): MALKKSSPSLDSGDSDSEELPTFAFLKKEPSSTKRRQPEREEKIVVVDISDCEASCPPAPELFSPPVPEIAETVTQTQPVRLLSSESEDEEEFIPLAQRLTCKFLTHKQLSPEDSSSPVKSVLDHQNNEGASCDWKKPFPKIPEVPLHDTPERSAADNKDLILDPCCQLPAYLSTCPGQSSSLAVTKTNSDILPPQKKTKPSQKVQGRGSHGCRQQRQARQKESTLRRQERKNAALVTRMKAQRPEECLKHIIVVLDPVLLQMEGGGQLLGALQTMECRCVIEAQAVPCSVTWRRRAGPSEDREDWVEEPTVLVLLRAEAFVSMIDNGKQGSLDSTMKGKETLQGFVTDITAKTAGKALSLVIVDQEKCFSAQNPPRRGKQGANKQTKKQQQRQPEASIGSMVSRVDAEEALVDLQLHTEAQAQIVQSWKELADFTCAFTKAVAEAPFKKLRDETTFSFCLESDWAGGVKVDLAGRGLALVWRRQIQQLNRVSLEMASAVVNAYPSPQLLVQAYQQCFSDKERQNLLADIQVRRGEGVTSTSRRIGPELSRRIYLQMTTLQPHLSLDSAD
Test: Nuclease inhibition assay, MUS81/EME1 (3′ flap fluorescent DNA substrate, gel readout)
Settings: 5 nM enzyme, 5 nM 3′ flap substrate, 15 min at 30° C.

Recorded results for 5 molecules are shown here.
molecule: CCc1nn2c(O)c(-c3nc4ccccc4[nH]3)nnc2c1-c1ccc(F)cc1
target.under.test: MUS81/EME1 (Homo sapiens, UniProt Q96NY9)
recorded.metric: IC50
reported.measurement: < 10 µM
--
molecule: Nc1c(-c2nc3ccccc3[nH]2)nnc2c(-c3ccc(F)cc3)cnn12
target.under.test: MUS81/EME1 (Homo sapiens, UniProt Q96NY9)
recorded.metric: IC50
reported.measurement: > 50 µM
--
molecule: Nc1c(-c2nc3ccccc3[nH]2)nnc2cc(-c3ccccc3Cl)nn12
target.under.test: MUS81/EME1 (Homo sapiens, UniProt Q96NY9)
recorded.metric: IC50
reported.measurement: < 50 µM
--
molecule: Cn1ccc(-c2cnn3c(O)c(-c4nc5ccccc5n4Cc4ccccc4)nnc23)n1 [Preparative Example 17E]
target.under.test: MUS81/EME1 (Homo sapiens, UniProt Q96NY9)
recorded.metric: IC50
reported.measurement: < 50 µM
--
molecule: CCc1cc2nnc(-c3nc4ccccc4n3Cc3ccccc3)c(N)n2n1
target.under.test: MUS81/EME1 (Homo sapiens, UniProt Q96NY9)
recorded.metric: IC50
reported.measurement: < 50 µM

# IC50 measured on MUS81/EME1 (Homo sapiens, UniProt Q96NY9) for item "CCc1nn2c(N)c(-c3nc4ccccc4[nH]3)nnc2c1-c1cccc(C(=O)O)c1" = < 10 µM

The recorded IC50 with MUS81/EME1 (Homo sapiens, UniProt Q96NY9) for "CCc1nn2c(N)c(-c3nc4ccccc4[nH]3)nnc2c1-c1cccc(-c2ccccc2)c1" was < 10 µM
